Each entry below carries its reported protein stability index.
B1: SCNN1D (parent)
chain: RRPSPVLRHLELLDEFARENIDSL

Variants of: B1
Assay: protein stability index of a GFP-peptide fusion (GPS, HEK-293T) (PSI 1-6); higher = more stable;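 further: lentivirally expressed fusions sorted by FACS into six bins by GFP to DsRed ratio, PSI derived from sequencing read proportions per bin multiplied by bin number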
Conditions: c terminus: a fixed tail appended
Kindly provide the number alone.

Variant Code	Value Measured
L10F	3.9
R2Y	1.63
P5D	3.08
F16I	2.84

--- query ---
Incoming: Answer with reported protein stability index of V6Y
Outgoing: 1.96
